- Target under test: NADPH oxidase 4 (Homo sapiens) (UniProt Q9NPH5)
- Sequence (Q9NPH5 whole entry, looked up): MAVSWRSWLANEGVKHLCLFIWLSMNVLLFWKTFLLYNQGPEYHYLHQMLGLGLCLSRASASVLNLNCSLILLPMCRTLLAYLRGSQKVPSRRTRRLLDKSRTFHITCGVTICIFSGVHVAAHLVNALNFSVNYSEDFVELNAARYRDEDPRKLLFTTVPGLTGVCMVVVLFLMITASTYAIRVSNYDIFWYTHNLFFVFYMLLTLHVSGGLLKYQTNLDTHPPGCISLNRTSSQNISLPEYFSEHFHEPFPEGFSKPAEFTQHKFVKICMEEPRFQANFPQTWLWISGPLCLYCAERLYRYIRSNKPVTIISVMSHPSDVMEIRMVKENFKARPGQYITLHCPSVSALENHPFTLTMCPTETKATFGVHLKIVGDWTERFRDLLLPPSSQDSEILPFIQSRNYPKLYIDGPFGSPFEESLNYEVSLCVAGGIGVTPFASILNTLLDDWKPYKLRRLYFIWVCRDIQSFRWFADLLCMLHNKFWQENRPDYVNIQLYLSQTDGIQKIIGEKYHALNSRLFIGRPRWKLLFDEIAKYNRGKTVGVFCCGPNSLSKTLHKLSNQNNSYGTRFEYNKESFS
- Method: NOX4-dependent H2O2 signal modulators, primary screen, NOX inhibitor project, cell-based, HEK293-NOX4, tetracycline-induced, Amplex Red fluorescence (AID 1160)
- Test settings: 45 min, higher = more signal, called active from +8 up or from −8 down
Endpoint label: z-score
Give only the figure.

Molecule	z-score
COCCOC(=O)N1C(=O)[C@@]2(c3cc(C#CCC(C(=O)OC)C(=O)OC)ccc31)[C@H](C(=O)N1CCCCCCC1)[C@H]1C(=O)O[C@H](c3ccccc3)[C@H](c3ccccc3)N1[C@@H]2c1ccc(OCCO)cc1	0.43
CCOC(=O)C1=CCC(c2ccc([N+](=O)[O-])cc2)N(S(=O)(=O)c2ccc(C)cc2)C1 (centres undefined)	0.135
N[C@@H](Cc1ccccc1)Cn1cc(-c2ccccc2)nn1	0.45

We next turn to a different molecule, shown below.
Exercise: Could you share which z-score value was measured for CN1C(=O)C2C=CC(C(O)c3ccccn3)N(Nc3ccccc3)C2C1=O (centres undefined) ?
Key: -4.52
